Source: paper PMC8048783

# TESTED_ON: CYP154C5 (Nocardia farcinica, UniProt Q5YNS8)
# Sequence (Q5YNS8 entry or part of it): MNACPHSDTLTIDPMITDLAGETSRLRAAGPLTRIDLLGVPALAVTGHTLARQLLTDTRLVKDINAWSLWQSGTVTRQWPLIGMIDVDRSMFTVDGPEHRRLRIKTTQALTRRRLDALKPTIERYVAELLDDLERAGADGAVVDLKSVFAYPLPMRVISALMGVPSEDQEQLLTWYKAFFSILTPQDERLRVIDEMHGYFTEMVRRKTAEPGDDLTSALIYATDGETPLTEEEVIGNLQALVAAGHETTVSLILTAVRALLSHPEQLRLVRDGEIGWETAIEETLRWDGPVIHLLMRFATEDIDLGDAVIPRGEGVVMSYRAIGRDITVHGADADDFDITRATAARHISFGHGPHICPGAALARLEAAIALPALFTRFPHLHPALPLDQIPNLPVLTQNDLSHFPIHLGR
// boundary case: Kd equal to 0.02 µM maps to 0; strictly smaller maps to 1

Answered cases to consult:
CC(=O)[C@H]1CC[C@H]2[C@@H]3CCC4=CC(=O)CC[C@]4(C)[C@H]3CC[C@]12C :: 1
C[C@]12CC[C@H]3[C@@H](CCC4=CC(=O)CC[C@@H]43)[C@@H]1CC[C@@H]2O :: 0
C[C@]12CCC(=O)C=C1CC[C@@H]1[C@@H]2CC[C@]2(C)C(=O)CC[C@@H]12 :: 1

Now for another entry.
[in] Strictly below 0.02 µM in Kd? C[C@]12CC[C@H]3[C@@H](CCC4=CC(=O)CC[C@@]43C)[C@@H]1CC[C@@H]2O
[out] 1

---

Here's a batch of molecules along with measured Kd for UniProt:Q5YNS8.
Express your answer in µM, writing the number without its unit.

CC(=O)[C@H]1CC[C@H]2[C@@H]3CC=C4C[C@@H](O)CC[C@]4(C)[C@H]3CC[C@]12C [compound 1, pregnenolone] :: 0.062

Next:
With UniProt:Q5YNS8 as the test system, C[C@]12CCCCC1=CC[C@@H]1[C@@H]2CC[C@]2(C)C(=O)CC[C@@H]12 [compound 10, 3‐deoxydehydroepiandrosterone] showed Kd of 0.094

---

# TESTED_ON: CYP154C5 (Nocardia farcinica, UniProt Q5YNS8, Q398A)
# Construct: full-length, N-terminal His-tag (pET28a(+), NdeI/HindIII), purified from E. coli C43(DE3)
# ASSAY_NAME: type I spectral shift titration, tight-binding fit
Reported Kd values for a set of compounds
# number then unit; no other words

Example entries begin here.
C[C@]12CC[C@H](O)CC1=CC[C@@H]1[C@@H]2CC[C@]2(C)C(=O)CC[C@@H]12 [compound 2, dehydroepiandrosterone] :: 687 nM
C[C@]12CC[C@H]3[C@@H](CCC4=CC(=O)CC[C@@]43C)[C@@H]1CC[C@@H]2O [compound 5, testosterone] :: 747 nM

Next:
Recorded result, CC(=O)[C@H]1CC[C@H]2[C@@H]3CCC4=CC(=O)CC[C@]4(C)[C@H]3CC[C@]12C [compound 3, progesterone] , Kd: 34 nM

---

Reported pKd values for a set of molecules
# TESTED_ON: CYP154C5 (Nocardia farcinica, UniProt Q5YNS8, F92A)
# Construct: full-length, N-terminal His-tag (pET28a(+), NdeI/HindIII), purified from E. coli C43(DE3)
# Sequence (Q5YNS8 whole entry F92A): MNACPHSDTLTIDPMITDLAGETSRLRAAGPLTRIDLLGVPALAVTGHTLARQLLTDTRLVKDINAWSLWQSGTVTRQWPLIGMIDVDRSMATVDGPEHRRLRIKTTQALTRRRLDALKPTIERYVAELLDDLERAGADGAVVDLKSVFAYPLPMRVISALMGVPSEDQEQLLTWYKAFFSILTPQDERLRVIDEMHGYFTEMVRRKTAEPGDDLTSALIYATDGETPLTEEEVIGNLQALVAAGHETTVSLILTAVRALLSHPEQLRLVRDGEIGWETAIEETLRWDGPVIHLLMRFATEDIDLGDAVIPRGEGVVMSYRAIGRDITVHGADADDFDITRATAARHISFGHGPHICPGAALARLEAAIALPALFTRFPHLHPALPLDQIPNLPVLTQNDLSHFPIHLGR
# ASSAY_NAME: type I spectral shift titration, tight-binding fit
# Text: type I spectral shift titration, tight-binding fit on CYP154C5
Recall that pKd is obtained by taking minus log10 of the concentration measured in molar.

C[C@]12CC[C@H]3[C@@H](CCC4=CC(=O)CC[C@@]43C)[C@@H]1CC[C@@H]2O [compound 5, testosterone] :: 5.83
C[C@]12CCC(=O)C=C1CC[C@@H]1[C@@H]2CC[C@]2(C)C(=O)CC[C@@H]12 [compound 4, androstenedione] :: 6.29
C[C@]12CC[C@H](O)CC1=CC[C@@H]1[C@@H]2CC[C@]2(C)C(=O)CC[C@@H]12 [compound 2, dehydroepiandrosterone] :: 5.99

Next:
Recorded result, CC(=O)[C@H]1CC[C@H]2[C@@H]3CCC4=CC(=O)CC[C@]4(C)[C@H]3CC[C@]12C [compound 3, progesterone] , pKd: 6.68

---

Reported Kd values for a set of molecules
# TESTED_ON: CYP154C5 (Nocardia farcinica, UniProt Q5YNS8, M84A)
# Construct: full-length, N-terminal His-tag (pET28a(+), NdeI/HindIII), purified from E. coli C43(DE3)
# Sequence (Q5YNS8 whole entry M84A): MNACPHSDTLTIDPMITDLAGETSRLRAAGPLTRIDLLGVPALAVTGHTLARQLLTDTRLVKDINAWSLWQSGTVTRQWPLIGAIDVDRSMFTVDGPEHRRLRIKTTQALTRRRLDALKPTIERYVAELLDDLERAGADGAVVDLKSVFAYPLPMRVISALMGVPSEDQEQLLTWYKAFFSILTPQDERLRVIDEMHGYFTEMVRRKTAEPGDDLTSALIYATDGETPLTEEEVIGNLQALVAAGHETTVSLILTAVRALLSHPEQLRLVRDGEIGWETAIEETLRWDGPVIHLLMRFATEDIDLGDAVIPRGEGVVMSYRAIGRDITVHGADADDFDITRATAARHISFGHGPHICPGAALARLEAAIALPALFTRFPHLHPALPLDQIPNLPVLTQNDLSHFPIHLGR
# ASSAY_NAME: type I spectral shift titration, tight-binding fit
Express your answer in µM, writing the number without its unit.

C[C@]12CC[C@H]3[C@@H](CCC4=CC(=O)CC[C@@]43C)[C@@H]1CC[C@@H]2O :: 5.71

Recorded result, C[C@]12CCC(=O)C=C1CC[C@@H]1[C@@H]2CC[C@]2(C)C(=O)CC[C@@H]12 , Kd: 3.13
